METHOD NOTES: Plasma pharmacokinetics after multiple ascending doses (MAD), phase 1
Format: in vivo, human (healthy adult participants)
ASSAY CONDITIONS: human, plasma, iv, 100 mg, First q6h dose (day 3), 7-day MAD 100 mg q6h × 7, 1-h IV infusion, plasma, n = 6, arithmetic mean ± SD
Experimental: Participants were discharged on day 11. Plasma and urine PK parameters were summarized for each cohort using descriptive statistics. Analyses using linear models were performed to assess dose proportionality (both single-dose cohorts 1–7 and multiple-dose cohorts 8–10). Dose-linearity of Cmax and AUC across the dose range was assessed by fitting the power model with ln-transformed parameter as response variables and ln-transformed dose (continuous variable) as a fixed effect. […]
Where a SMILES comes first, the peptide text is derived from it. Bridges are numbered along the chain shown (N, C = ends). [ ]: non-standard residue; d: D form. The star is where a group is joined. X1 = O=C(c1ccc(Cl)cc1Cl)*; Dab = NCC[C@H](N)C(=O)O; Abu = CC[C@H](N)C(=O)O; Dap = NC[C@H](N)C(=O)O
ENDPOINT LABEL: Cmax (ng/mL)
Number in ng/mL, nothing else.

What the record says about CC[C@@H]1NC(=O)[C@@H](CC(C)C)NC(=O)[C@H](CCN)NC(=O)[C@@H](NC(=O)[C@H](CN)NC(=O)[C@@H](NC(=O)[C@H](CCN)NC(=O)c2ccc(Cl)cc2Cl)[C@@H](C)O)CCNC(=O)[C@H]([C@@H](C)O)NC(=O)[C@H](CCN)NC(=O)[C@H](CCN)NC1=O [BRII-693] (X1-[Dab]T[Dap][Dab][Dab][dL][Abu][Dab][Dab]T; lactam 4-C; N-terminus assumed) : Cmax is 5960
